Cited source: the M2OR odorant receptor database

# measurement-target: UniProt Q7TQV4
# Sequence (Q7TQV4 as listed by the source): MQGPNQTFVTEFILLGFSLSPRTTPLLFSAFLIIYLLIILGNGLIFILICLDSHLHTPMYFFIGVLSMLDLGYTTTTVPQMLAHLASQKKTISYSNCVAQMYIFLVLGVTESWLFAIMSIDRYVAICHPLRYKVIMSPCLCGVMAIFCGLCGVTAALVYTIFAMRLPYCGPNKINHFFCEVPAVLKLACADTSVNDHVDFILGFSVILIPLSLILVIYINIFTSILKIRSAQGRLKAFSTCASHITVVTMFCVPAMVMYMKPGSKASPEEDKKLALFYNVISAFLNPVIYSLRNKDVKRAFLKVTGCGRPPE
# condition: stereoisomer not certain
Classes used: active, inactive

{"columns": ["structure-notation", "label-value"],
 "data": [
  ["CC(=O)OCC=C(C)C", "active"],
  ["CCCCCCC(=O)[O-].[H+]", "inactive"],
  ["O=C(c1ccccc1)c1ccccc1", "inactive"],
  ["CCCCCCO", "inactive"],
  ["CCCCCO", "inactive"],
  ["CCCCCCCCS", "inactive"],
  ["CCCCCCCCO", "inactive"]
]}

###

# measurement-target: OR52N5 (Homo sapiens) (UniProt Q8NH56)
# Sequence (whole entry): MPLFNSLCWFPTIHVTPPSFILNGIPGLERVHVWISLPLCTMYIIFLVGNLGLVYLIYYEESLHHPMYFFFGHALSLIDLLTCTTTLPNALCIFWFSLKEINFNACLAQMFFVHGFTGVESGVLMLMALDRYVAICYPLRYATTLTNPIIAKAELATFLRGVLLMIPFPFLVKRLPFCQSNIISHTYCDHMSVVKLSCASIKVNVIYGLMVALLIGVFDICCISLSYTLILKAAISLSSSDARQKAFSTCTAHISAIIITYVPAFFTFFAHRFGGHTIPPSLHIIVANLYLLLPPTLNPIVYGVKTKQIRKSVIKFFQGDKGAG
# condition: stereoisomer not certain
Outcomes: 1 (active), -1 (inactive)

{"columns": ["compound", "measurement-target", "label-value"],
 "data": [
  ["CCC1OC(C)=C(O)C1=O (stereo not drawn)", "OR52N5 (Homo sapiens) (UniProt Q8NH56)", -1],
  ["CCCC(S)CCOC(C)=O (stereo not drawn)", "OR52N5 (Homo sapiens) (UniProt Q8NH56)", -1],
  ["CCCCCCC=CCCC=O", "OR52N5 (Homo sapiens) (UniProt Q8NH56)", -1],
  ["Cc1cnc(C)c(C)n1", "OR52N5 (Homo sapiens) (UniProt Q8NH56)", -1],
  ["CCCCC(S)C(C)CO (stereo not drawn)", "OR52N5 (Homo sapiens) (UniProt Q8NH56)", 1],
  ["CC(CO)CS (stereo not drawn)", "OR52N5 (Homo sapiens) (UniProt Q8NH56)", -1],
  ["CC1=NC(C)C(C)S1 (stereo not drawn)", "OR52N5 (Homo sapiens) (UniProt Q8NH56)", -1],
  ["CCC(S)C(C)CO (stereo not drawn)", "OR52N5 (Homo sapiens) (UniProt Q8NH56)", -1]
]}
